Entry source: patent US20230143612A1

- measuredOn: PD-L1 His protein / PD-1 Fc protein (Homo sapiens)
- Sequence (Q9NZQ7 19-238 limits assumed): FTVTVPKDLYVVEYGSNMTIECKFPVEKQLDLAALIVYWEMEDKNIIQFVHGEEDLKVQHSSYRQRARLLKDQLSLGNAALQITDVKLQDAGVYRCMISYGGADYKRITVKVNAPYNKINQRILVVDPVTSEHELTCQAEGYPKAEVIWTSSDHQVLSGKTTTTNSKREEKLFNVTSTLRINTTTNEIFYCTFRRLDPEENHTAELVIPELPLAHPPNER
- method: HTRF Assay (PD-1/PD-L1 interaction)
- measurementConditions: PD-L1 His 6 nM, PD-1 Fc 6 nM
reportedEndpoint: pIC50
pIC50 (log units): -log10 of the concentration in mol/L.

{"compound": "COc1nc(-c2cccc(-c3cccc(-c4ccc5c(CNC[C@@H]6CCO6)cn(C)c5n4)c3Cl)c2Cl)ccc1CNC[C@@H]1CCC(=O)N1 [Example 413]", "measuredOn": "PD-L1 His protein / PD-1 Fc protein (Homo sapiens)", "pIC50": 6.72}
{"compound": "COc1nc(-c2cccc(-c3cccc(-c4ccn5c(Cl)c(CNCCO)nc5c4)c3Cl)c2Cl)ccc1CNCCO [Example 383]", "measuredOn": "PD-L1 His protein / PD-1 Fc protein (Homo sapiens)", "pIC50": 7.40}

Lab note: next compound to report on.
Q: Looking for the measured pIC50 of COc1nc(-c2cccc(-c3cccc(-c4ccn5c(=O)c(CN6CC[C@H](C(=O)O)C6)cnc5c4)c3Cl)c2Cl)cnc1CN1CC(CO)C1 [Example 92] , can you help?
Ans: 9.52
